test system: Klebsiella pneumoniae; experiment: In vitro antibacterial activity, MIC by broth dilution; type: cell-based; conditions: 20-72 hours at 37° C., Nutrient Broth
RESULT TYPE: MIC, Kp (µM)
State just the number; it will be interpreted in µM.

// known answers, use as guide
[[record]]
molecule = "CCn1cc(C(=O)O)c(=O)c2cc(F)c(N3CCN(CC(C)=NO)CC3)cc21"
unit_annotation = "µM"
reported = 0.13

[[record]]
molecule = "COc1ccc(C(CN2CCN(c3cc4c(cc3F)c(=O)c(C(=O)O)cn4-c3ccc([N+](=O)[O-])cc3F)CC2)=NO)cc1"
unit_annotation = "µM"
reported = 0.08

[[record]]
molecule = "CCn1cc(C(=O)O)c(=O)c2cc(F)c(N3CCNCC3)cc21 [Norfloxacin, reference compound]"
unit_annotation = "µM"
reported = 0.041


Turning to the following molecule.
Prompt line: Find the measured MIC, Kp of `CCn1cc(C(=O)O)c(=O)c2cc(F)c(N3CCN(CC(=NOC)c4ccc(OC)cc4)CC3)cc21` and report it.
Response line: 1.57
